Could you please report measured growth for the items listed next?
tested on: Ruminococcus gnavus DSM 108212; assay: growth (OD595) fold change vs plate DMSO controls (fold change (ratio)); higher = more growth; conditions: incubation time: 27 h, anaerobic, 37 °C
Counter-ions that a name gives are not always drawn.
Respond with the number and no other words.

Reported growth for COc1ccccc1N1CCN(CCCCNC(=O)c2ccc3ccccc3c2)CC1 (20 µM) : what is it?
0.893

Look at this molecule and give its reported growth. CCS(=O)(=O)CCn1c([N+](=O)[O-])cnc1C [Tinidazole] (20 µM)
0.176

// growth lookup, key: NS(=O)(=O)c1cc2c(cc1Cl)NC(C(Cl)Cl)NS2(=O)=O (configuration not stated) [Trichlormethiazide] (20 µM)
1.07

Fill blank: measured growth of the molecule C[C@H]1C[C@H]2[C@@H]3CCC4=CC(=O)C=C[C@]4(C)[C@@]3(F)[C@@H](O)C[C@]2(C)[C@@]1(O)C(=O)CO [Betamethasone] (20 µM) is ____.
1.11

So what does the record say about growth for CCN(CC)Cc1cc(Nc2ccnc3cc(Cl)ccc23)ccc1O [Amodiaquine dihydrochloride dihydrate] (20 µM) ?
1.02

Look up growth: CCn1cc(C(=O)O)c(=O)c2ccc(C)nc21 [Nalidixic acid sodium salt] (20 µM)
1.13

Value lookup for growth; key = COC(=O)[C@H]1[C@H]2C[C@@H]3c4[nH]c5cc(OC)ccc5c4CCN3C[C@H]2C[C@@H](OC(=O)c2cc(OC)c(OC)c(OC)c2)[C@@H]1OC [Reserpine] (20 µM)
1.01

----------
tested on: Ruminococcus gnavus DSM 108212; experiment: growth (OD595) fold change vs plate DMSO controls (fold change (ratio)); higher = more growth; conditions: incubation time: 27 h, anaerobic, 37 °C
Counter-ions that a name gives are not always drawn.
Give measured growth for each item. Keep answers brief.
Respond with the number and no other words.

Reported growth for CC(C)(c1ccc(O)cc1)c1ccc(O)cc1 [Bisphenol A] (20 µM) : what is it?
0.996

Can you look up the measured growth of OCCN1CCN(CCCN2c3ccccc3C=Cc3ccccc32)CC1 [Opipramol dihydrochloride] (20 µM) for me?
0.902

Look up growth: CCCOc1ccccc1-c1nc2[nH]nnc2c(=O)[nH]1 [Zaprinast] (20 µM)
1.2

# input compound: N=C(N)NCC1COC2(CCCCC2)O1 (stereo not drawn) [Guanadrel sulfate] (20 µM) ; wanted: its growth
1.16

Entry CN(C)CCC=C1c2ccccc2CCc2ccccc21 [Amitryptiline hydrochloride] (20 µM) : reported growth = ?
1.12

Which growth value belongs to NS(=O)(=O)c1cc2c(cc1C(F)(F)F)NCNS2(=O)=O [Hydroflumethiazide] (20 µM) ?
0.941

I would be grateful if you could share the reported growth for CCOC(=O)Nc1ccc2c(c1)N(C(=O)CCN1CCOCC1)c1ccccc1S2 [Moricizine hydrochloride] (20 µM) .
1.06

Any idea what its growth is? The compound is CNC(=C[N+](=O)[O-])NCCSCc1ccc(CN(C)C)o1 [Ranitidine hydrochloride] (20 µM)
1.47

----------
system: Klebsiella aerogenes DSM 30053; assay: fold change of Cadaverine concentration vs plate DMSO controls (fold change (ratio)); higher = more amine produced, active = hit call of the paper (significant change in both replicates, either direction); settings: incubation time: 27 h, anaerobic, 37 °C
Structures can show the parent of a compound that is named as a salt.
measurement-name: fold change of Cadaverine concentration
Form rule: numeric answer, no unit written next to it.

Enter reported fold change of Cadaverine concentration observed with Klebsiella aerogenes DSM 30053 for COc1ccccc1Oc1c(NS(=O)(=O)c2ccc(C(C)(C)C)cc2)nc(-c2ncccn2)nc1OCCO [Bosentan] (20 µM)
1.04

What fold change of Cadaverine concentration appears in the records for this molecule with Klebsiella aerogenes DSM 30053? CCN(CC)CCOC(=O)C(Cc1cccc2ccccc12)CC1CCCO1 (stereo unspecified) [Nafronyl oxalate] (20 µM)
0.996

Provide the documented fold change of Cadaverine concentration with Klebsiella aerogenes DSM 30053 as the system for NCCCCCC(=O)O [Aminocaproic acid] (20 µM)
1.02

Find fold change of Cadaverine concentration (Klebsiella aerogenes DSM 30053) for the entry CCCSS/C(CCO)=C(/C)N(C=O)Cc1cnc(C)nc1N [Prosultiamine] (20 µM)
0.984

# returns recorded fold change of Cadaverine concentration (system: Klebsiella aerogenes DSM 30053) for CN[C@H](CC(C)C)C(=O)N[C@H]1C(=O)N[C@@H](CC(N)=O)C(=O)N[C@H]2C(=O)N[C@H]3C(=O)N[C@H](C(=O)N[C@H](C(=O)O)c4cc(O)cc(O)c4-c4cc3ccc4O)[C@H](O)c3ccc(c(Cl)c3)Oc3cc2cc(c3O[C@@H]2O[C@H](CO)[C@@H](O)[C@H](O)[C@H]2O[C@H]2C[C@](C)(N)[C@H](O)[C@H](C)O2)Oc2ccc(cc2Cl)[C@H]1O [Vancomycin hydrochloride] (20 µM)
0.998

I'm curious: which fold change of Cadaverine concentration was measured for O=C(O)Cc1csc(-c2ccc(Cl)cc2)n1 [Fenclozic acid] (20 µM) tested on Klebsiella aerogenes DSM 30053?
0.977

The measured values listed here are drawn from the supplement of paper PMC12494721.
